Hello, the source for this data is ChEMBL document CHEMBL5058577, in case you need it.

# maps each entry to its Population Mitotic Cells (%)
system: Fibroblast; experiment: Multiplex assay against human fibroblast; type: toxicity, cell-based; settings: 48 h, 10 µM, compound concentration 10 uM, replicate 1
# number only, unit % dropped from output

Field: example entries. Status: answers known.
compound="Cl.NCCc1ccc(O)c(O)c1 [DOPAMINE HYDROCHLORIDE]" systemtested=Fibroblast unitsofmeasure=% recordedresult=12
compound="Br.CS(=O)(=O)Nc1c(O)ccc2c1CCCC2C1=NCCN1 (stereo not drawn)" systemtested=Fibroblast unitsofmeasure=% recordedresult=38

Field: next compound
Read off the recorded Population Mitotic Cells (%) for CCCCCC(O)/C=C/[C@H]1C(=O)CC(O)C1C/C=C\CCCC(=O)O (stereo partly drawn)
36

----------
Quick list: Population Mitochondria Different-Phenotype (%) per entry.
system: U2OS; test: Multiplex assay against U2OS; assay type: toxicity, cell-based; details: human, 12 h, 1 µM, compound concentration 1 uM, replicate 2
State the answer as a number, implicitly in %.

Examples from the recorded data:
compound="Cc1sc2c(c1C)C(c1ccc(Cl)cc1)=N[C@@H](CC(=O)NCCCCCCCCNC(=O)COc1cccc3c1C(=O)N(C1CCC(=O)NC1=O)C3=O)c1nnc(C)n1-2 (stereo partly drawn)" systemtested=U2OS unitsofmeasure=% recordedresult=1
compound=CC(C)c1noc(N2CCC(COc3ccc(-c4ccc(S(C)(=O)=O)cc4)nc3)CC2)n1 systemtested=U2OS unitsofmeasure=% recordedresult=0

Next:
Please look at this compound and report its Population Mitochondria Different-Phenotype (%): CC(/C=C1\SC(=S)N(CCCC(=O)Nc2ccc(C(=O)O)c(O)c2)C1=O)=C\c1ccccc1
2

----------
Attribute: Population Apoptotic (%)
tested on: HEK-293T; test: Multiplex assay against HEK293T; assay type: toxicity, cell-based; details: human, 24 h, 10 µM, compound concentration 10 uM, replicate 1
Respond numerically; units are % and should not be typed.

molecule="CCC(=O)N1CCN(c2ccc(-n3c(=O)ccc4cnc5ccc(-c6cnc7ccccc7c6)cc5c43)cc2C(F)(F)F)CC1 [TORIN1]" propertylabel="Population Apoptotic (%)" recordedresult=45
molecule="Cc1sc2c(c1C)C(c1ccc(Cl)cc1)=N[C@@H](CC(=O)NCCCCCCCCNC(=O)COc1cccc3c1C(=O)N(C1CCC(=O)NC1=O)C3=O)c1nnc(C)n1-2 (stereo partly drawn)" propertylabel="Population Apoptotic (%)" recordedresult=52
molecule=NCCc1cn(S(=O)(=O)c2c(Cl)nc3sccn23)c2ccccc12.O=C(O)C(=O)O propertylabel="Population Apoptotic (%)" recordedresult=74
molecule=CCCCC(=O)N(Cc1ccc(-c2ccccc2-c2nnn[nH]2)cc1)[C@H](C(=O)O)C(C)C propertylabel="Population Apoptotic (%)" recordedresult=20
molecule="O=C(NCCN1CCC(n2c(=O)[nH]c3cc(Cl)ccc32)CC1)c1ccc(F)cc1 [HALOPEMIDE]" propertylabel="Population Apoptotic (%)" recordedresult=27
molecule=N#Cc1cc(F)cc(-c2nc(-c3ccc(F)cn3)no2)c1 propertylabel="Population Apoptotic (%)" recordedresult=41
molecule=Cc1noc(-c2ccc(-c3ccc(CC(=O)O)cc3)cc2)c1NC(=O)O[C@H](C)c1ccccc1Cl propertylabel="Population Apoptotic (%)" recordedresult=39

Moving on to the next molecule.
Return Population Apoptotic (%) for the following molecule: CC(C)COc1ccc(CNC(=O)N(Cc2ccc(F)cc2)C2CCN(C)CC2)cc1 [PIMAVANSERIN]
81

----------
tested on: Fibroblast; experiment: Multiplex assay against human fibroblast; type: toxicity, cell-based; conditions: 24 h, 1 µM, compound concentration 1 uM, replicate 1
Listed here: items and their measured Population Pyknosed Nuclei (%).
Numeric only. Scale: %

Some solved cases for reference:
compound="CCCCCC(O)/C=C/[C@H]1C(=O)CC(O)C1C/C=C\\CCCC(=O)O (some centres undefined)" propertylabel="Population Pyknosed Nuclei (%)" recordedresult=8
compound="CC(C)(C)c1cc(NC(=O)Nc2ccc(-c3cn4c(n3)sc3cc(OCCN5CCOCC5)ccc34)cc2)no1 [QUIZARTINIB]" propertylabel="Population Pyknosed Nuclei (%)" recordedresult=12
compound=COc1ccccc1N1CCN(C[C@@H](C(=O)NC(C)(C)C)c2ccccc2)CC1.Cl.Cl propertylabel="Population Pyknosed Nuclei (%)" recordedresult=14

Now look at this entry.
Please report Population Pyknosed Nuclei (%) for the following compound: CC(C)c1noc(N2CCC(COc3ccc(-c4ccc(S(C)(=O)=O)cc4)nc3)CC2)n1 [GSK-1292263]
11

----------
Population Mitochondria Different-Phenotype (%) values by entry
test system: U2OS; assay: Multiplex assay against U2OS; type: toxicity, cell-based; settings: human, 12 h, 10 µM, compound concentration 10 uM, replicate 2
Just the number please, in %, no unit attached.

Sample answers from the record:
compound=Cc1onc(-c2ccccc2Cl)c1C(=O)N(C)c1ccc(Cl)cc1 recordedresult=6
compound="CCCCCC(O)/C=C/[C@H]1C(=O)CC(O)C1C/C=C\\CCCC(=O)O (stereo not given in full)" recordedresult=2
compound="Cc1sc2c(c1C)C(c1ccc(Cl)cc1)=N[C@@H](CC(=O)NCCCCCCCCNC(=O)COc1cccc3c1C(=O)N(C1CCC(=O)NC1=O)C3=O)c1nnc(C)n1-2 (stereo not given in full)" recordedresult=12
compound=COc1cccc2c1c(NS(=O)(=O)c1ccc(Cl)s1)nn2Cc1cccc(CNC(=O)C(C)(C)O)c1 recordedresult=3

Report Population Mitochondria Different-Phenotype (%) for Cc1noc(-c2ccc(-c3ccc(CC(=O)O)cc3)cc2)c1NC(=O)O[C@H](C)c1ccccc1Cl
2

----------
test system: HEK-293T; assay: Multiplex assay against HEK293T; type: toxicity, cell-based; details: human, 24 h, 1 µM, compound concentration 1 uM, replicate 2
# Population Membrane Permeable-Phenotype (%) annotations
Number only, in %; omit the unit.

Some entries whose results are on file:
molecule="O=C(NCCN1CCC(n2c(=O)[nH]c3cc(Cl)ccc32)CC1)c1ccc(F)cc1 [HALOPEMIDE]" recordedresult=0
molecule=O=C(CCCc1ccccc1)Nc1nc2ccccc2c(=O)s1 recordedresult=0
molecule="COC[C@@H](c1ccc(C(F)(F)F)cc1)N1CCN(C2(C)CCN(C(=O)c3c(C)ncnc3C)CC2)C[C@@H]1C.O=C(O)/C=C\\C(=O)O [VICRIVIROC MALEATE]" recordedresult=1
molecule=CCc1cc2cc(NS(=O)(=O)c3ccc(C#N)cc3)ccc2n(CC)c1=O recordedresult=0
molecule="Br.CS(=O)(=O)Nc1c(O)ccc2c1CCCC2C1=NCCN1 (stereo not drawn)" recordedresult=0

Answer with the recorded Population Membrane Permeable-Phenotype (%) of C[C@H](N)COC(=O)[C@@H](CCCCN)NC(=O)Cc1c(-c2ccc3ccccc3c2)[nH]c2c1ccc1ccccc12 only.
1

Retrieve Population Membrane Permeable-Phenotype (%) measured for CCCOc1ccc2[nH]cc(C3=CCNCC3)c2n1.Cl and print it.
1

Indicate the recorded Population Membrane Permeable-Phenotype (%) value for this molecule: CN[C@@H](C)C(=O)N[C@H](C(=O)N1CCC[C@H]1C(=O)Nc1snnc1-c1ccccc1)C1CCCCC1 [GDC-0152]
0

Indicate the recorded Population Membrane Permeable-Phenotype (%) value for this molecule: CCCCCC(O)/C=C/[C@H]1C(=O)CC(O)C1C/C=C\CCCC(=O)O (stereo partly drawn)
0

Find the measured Population Membrane Permeable-Phenotype (%) of Cc1cnc(-c2cc(N3CCN(C(=O)CCS(C)(=O)=O)CC3)ncc2Cl)c(C)c1 and report it.
0

Tell me its Population Membrane Permeable-Phenotype (%) given Cl.NCCc1ccc(O)c(O)c1 [DOPAMINE HYDROCHLORIDE] as the entry.
0

Output Population Membrane Permeable-Phenotype (%) of Cc1c(CC(=O)O)c2cccnc2n1Cc1ccc(S(C)(=O)=O)cc1C(F)(F)F [FEVIPIPRANT]
0

Return the recorded Population Membrane Permeable-Phenotype (%) value; entry: CC(C)COc1ccc(CNC(=O)N(Cc2ccc(F)cc2)C2CCN(C)CC2)cc1 [PIMAVANSERIN]
0

----------
system: Fibroblast; test: Multiplex assay against human fibroblast; assay type: toxicity, cell-based; details: 12 h, 10 µM, compound concentration 10 uM, replicate 1
Below, each of the compounds is paired with its reported Total Cell Count value.
Form: value (number only, do not type unit).

compound="CC(C)(C)c1cc(NC(=O)Nc2ccc(-c3cn4c(n3)sc3cc(OCCN5CCOCC5)ccc34)cc2)no1 [QUIZARTINIB]" recordedresult=190
compound="Cl.N=C(N)NC(=O)Cc1c(Cl)cccc1Cl [GUANFACINE HYDROCHLORIDE]" recordedresult=139
compound=COc1cccc2c1c(NS(=O)(=O)c1ccc(Cl)s1)nn2Cc1cccc(CNC(=O)C(C)(C)O)c1 recordedresult=211
compound="Cl.NCCc1ccc(O)c(O)c1 [DOPAMINE HYDROCHLORIDE]" recordedresult=135

Turning to the following compound.
Determine reported Total Cell Count for NCCc1cn(S(=O)(=O)c2c(Cl)nc3sccn23)c2ccccc12.O=C(O)C(=O)O ; test system: Fibroblast.
177
